This collection of values is drawn from patent EP4792817A1.

molecule	solubility
CO[C@H]1[C@H](O)[C@H](O[C@H]2CC[C@@]3(C)[C@H](CC[C@@H]4[C@@H]3CC[C@]3(C)[C@@H](C5=CC(=O)OC5)CC[C@]43O)C2)O[C@@H](C)[C@@H]1O [17β-neriifolin]	~70 µg/mL
